Below is a list of entries, each paired with its recorded melting point value.

// known answers, use as guide
O=C(O)Cc1cccc2c(-c3ccc(C(F)(F)F)cc3)nccc12; 228 to 230 °C
CC(C)(C)OC(=O)N(Cc1ccc(C(=O)NCC(=N)NO)cc1)c1ccc(C(C)(C)C)cc1; 154 to 156 °C
COc1cccc(COC(=O)c2ncn3c2[C@@H]2CCN2C(=O)c2c(Cl)cccc2-3)c1; 126 to 127 °C
Cc1cc(Oc2ccc(S(C)(=O)=O)nc2)cc2cc(C3=NCC(CC(=O)N4CCS(=O)CC4)S3)[nH]c12 (stereo not given); 157 to 160 °C

Kindly review the next compound as well.
melting point measured on CC(=O)c1cc(S(=O)(=O)c2ccccc2)ccc1OC[C@@H]1CO1 = 112 to 114 °C
